# Test system: recombinant NL4-3 virus (Renilla luciferase in nef, Gag P373S; NLRluc) in MT-2 cells
# experiment.summary: HIV cell culture assay (luciferase reporter virus in MT-2 cells)
# Type: cell-based
# experimental.parameters: NL43, read-out: WT EC50
# Description: Step 2: To a solution of methyl 4-((1R,3aS,5aR,5bR,7aR,11aS,11bR,13aR,13bR)-5a,5b,8,8,11a-pentamethyl-3a-(1-methyl-1H-1,2,4-triazol-5-yl)-1-(prop-1-en-2-yl)-2,3,3a,4,5,5a,5b,6,7,7a,8,11,11a,11b,12,13,13a,13b-octadecahydro-1H-cyclopenta[a]chrysen-9-yl)benzoate (12.7 mg, 0.021 mmol) in THF (1 mL) and MeOH (0.25 mL) was added a solution of 1N lithium hydroxide (0.073 mL, 0.073 mmol). The reaction was stirred at 75° C. […]
metric.name: EC50

{"entry.smiles": "C=C(C)[C@@H]1CC[C@]2(c3nnco3)CC[C@]3(C)[C@H](CC[C@@H]4[C@@]5(C)CC=C(c6ccc(C(=O)O)cc6)C(C)(C)[C@@H]5CC[C@]43C)[C@@H]12", "EC50": "< 100 nM"}
{"entry.smiles": "C=C(C)[C@@H]1CC[C@]2(C#Cc3ccccc3C(=O)O)CC[C@]3(C)[C@H](CC[C@@H]4[C@@]5(C)CC=C(c6ccc(C(=O)O)cc6)C(C)(C)[C@@H]5CC[C@]43C)[C@@H]12", "EC50": "80 nM"}

QUERY: // lookup EC50 for `C=C(C)[C@@H]1CC[C@]2(c3ncn(CCN4CCS(=O)(=O)CC4)n3)CC[C@]3(C)[C@H](CC[C@@H]4[C@@]5(C)CC=C(c6ccc(C(=O)O)cc6)C(C)(C)[C@@H]5CC[C@]43C)[C@@H]12`
RESULT: < 100 nM

---

Answer each item with its documented EC50.
# System: recombinant NL4-3 virus (Renilla luciferase in nef, Gag P373S; NLRluc) in MT-2 cells
# experiment.summary: HIV cell culture assay (luciferase reporter virus in MT-2 cells)
# Type: cell-based
# experimental.parameters: NL43, read-out: WT EC50

List EC50 for every entry below, keeping the order given.
1. C=C(C)[C@@H]1CC[C@]2(c3nc[nH]n3)CC[C@]3(C)[C@H](CC[C@@H]4[C@@]5(C)CC=C(c6ccc(C(=O)O)cc6)C(C)(C)[C@@H]5CC[C@]43C)[C@@H]12 [Example 5]
2. C=C(C)[C@@H]1CC[C@]2(c3ncnn3C)CC[C@]3(C)[C@H](CC[C@@H]4[C@@]5(C)CC=C(c6ccc(C(=O)O)cc6)C(C)(C)[C@@H]5CC[C@]43C)[C@@H]12 [Example 7]
3. C=C(C)[C@@H]1CC[C@]2(C#Cc3ccsc3-c3nnn[nH]3)CC[C@]3(C)[C@H](CC[C@@H]4[C@@]5(C)CC=C(c6ccc(C(=O)O)cc6)C(C)(C)[C@@H]5CC[C@]43C)[C@@H]12 [Example 2]
4. C=C(C)[C@@H]1CC[C@]2(c3nnc(CN(C)C)o3)CC[C@]3(C)[C@H](CC[C@@H]4[C@@]5(C)CC=C(c6ccc(C(=O)O)cc6)C(C)(C)[C@@H]5CC[C@]43C)[C@@H]12 [Example 4]

RESULT:
["< 100 nM", "< 100 nM", "> 100 nM", "< 100 nM"]
